Reference source: ChEMBL document CHEMBL1125208

# system.tested: Dihydrofolate reductase (Mus musculus) (UniProt P00375)
# Sequence (whole entry): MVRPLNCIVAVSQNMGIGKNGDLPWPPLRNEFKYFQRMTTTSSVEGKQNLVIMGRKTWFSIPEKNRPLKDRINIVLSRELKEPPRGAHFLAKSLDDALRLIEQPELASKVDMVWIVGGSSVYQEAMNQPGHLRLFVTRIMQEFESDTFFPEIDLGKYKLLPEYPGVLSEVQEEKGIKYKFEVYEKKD
# experimental.protocol: Inhibition of dihydrofolate reductase from L1210 leukemia tumors

| smiles.notation | Log 1/C |
| --- | --- |
| CC1(C)N=C(N)N=C(N)N1c1cccc(CCCCc2ccc(S(=O)(=O)F)c(Cl)c2)c1 | 7.7 |
| CC1(C)N=C(N)N=C(N)N1c1cccc(CNC(=O)Nc2cccc(Cl)c2)c1 | 8.05 |
| CC1(C)N=C(N)N=C(N)N1c1ccc(CCc2cccc(Cl)c2S(=O)(=O)F)c(Cl)c1 | 8.3 |
| CC1(C)N=C(N)N=C(N)N1c1ccc(Cl)c(OCCOc2ccc(S(=O)(=O)F)cc2)c1 | 7.27 |
| CC1(C)N=C(N)N=C(N)N1c1ccc(OCc2ccc(C(=O)Nc3ccc(S(=O)(=O)F)cc3)cc2)c(Cl)c1 | 6.92 |
| CC1(C)N=C(N)N=C(N)N1c1ccc(OCCCNC(=O)Nc2cccc(S(=O)(=O)F)c2)cc1 | 7.32 |
| CC1(C)N=C(N)N=C(N)N1c1ccc(OCCCCCCOc2ccc(S(=O)(=O)F)cc2)c(Cl)c1 | 7.46 |
| CC1(C)N=C(N)N=C(N)N1c1ccc(OCC(=O)Nc2cccc(S(=O)(=O)F)c2)c(Cl)c1 | 7.72 |
| CC1(C)N=C(N)N=C(N)N1c1ccc(Cl)c(OCCCCCOc2ccc(S(=O)(=O)F)cc2)c1 | 6.72 |
| CC1(C)N=C(N)N=C(N)N1c1ccc(CCc2ccccc2)cc1 | 7.89 |
| CC1(C)N=C(N)N=C(N)N1c1ccc(CNC(=O)Nc2ccc(S(=O)(=O)F)cc2)cc1 | 7.35 |
| CC1(C)N=C(N)N=C(N)N1c1cccc(CCCCc2cccc(S(=O)(=O)F)c2)c1 | 8.1 |
| CC1(C)N=C(N)N=C(N)N1c1ccc(OCc2c(Cl)cccc2S(=O)(=O)F)c(Cl)c1 | 7.72 |
| CC1(C)N=C(N)N=C(N)N1c1ccc(Cl)c(OCCCCOc2ccc(S(=O)(=O)F)cc2)c1 | 7.17 |
| CC1(C)N=C(N)N=C(N)N1c1cc(Cl)c(OCC(=O)Nc2ccc(S(=O)(=O)F)cc2)c(Cl)c1 | 7.74 |
| CC1(C)N=C(N)N=C(N)N1c1cccc(CNC(=O)Nc2cccc(C#N)c2)c1 | 8.19 |
| CC1(C)N=C(N)N=C(N)N1c1ccc(OCCCNC(=O)Nc2ccc(S(=O)(=O)F)cc2)c(Cl)c1 | 7.68 |
| CC1(C)N=C(N)N=C(N)N1c1cccc(CNC(=O)Nc2cccc([N+](=O)[O-])c2)c1 | 8.1 |
| CC1(C)N=C(N)N=C(N)N1c1ccc(OCCCOc2ccc(S(=O)(=O)F)cc2)c(Cl)c1 | 7.07 |
| CC1(C)N=C(N)N=C(N)N1c1ccc(CCc2ccc(Cl)c(S(=O)(=O)F)c2)c(Cl)c1 | 8.27 |
| CC1(C)N=C(N)N=C(N)N1c1ccc(OCCOCCOc2ccc(S(=O)(=O)F)cc2)c(Cl)c1 | 7.14 |
| Cc1cc(NC(=O)NCc2ccc(N3C(N)=NC(N)=NC3(C)C)cc2)ccc1S(=O)(=O)F | 7.72 |
| CC1(C)N=C(N)N=C(N)N1c1ccc(OCc2cccc(Cl)c2S(=O)(=O)F)c(Cl)c1 | 7.42 |
| CC1(C)N=C(N)N=C(N)N1c1ccc(CCCCc2ccc(S(=O)(=O)F)cc2Cl)cc1 | 7.96 |
| CC1(C)N=C(N)N=C(N)N1c1ccc(OCc2cc(S(=O)(=O)F)ccc2Cl)c(Cl)c1 | 7.38 |
| CC1(C)N=C(N)N=C(N)N1c1ccc(OCCCNC(=O)c2ccc(S(=O)(=O)F)cc2)c(Cl)c1 | 7.34 |
| CC1(C)N=C(N)N=C(N)N1c1ccc(CCCCCCc2ccc(S(=O)(=O)F)cc2)cc1 | 7.12 |
| CC1(C)N=C(N)N=C(N)N1c1ccc(OCc2ccccc2C(=O)Nc2ccc(S(=O)(=O)F)cc2)c(Cl)c1 | 7.24 |
| CC1(C)N=C(N)N=C(N)N1c1ccc(OCc2cccc(C(=O)Nc3cccc(S(=O)(=O)F)c3)c2)c(Cl)c1 | 7.24 |
| CC1(C)N=C(N)N=C(N)N1c1ccc(OCCCCOc2ccc(S(=O)(=O)F)cc2)c(Cl)c1 | 7.57 |
| CC1(C)N=C(N)N=C(N)N1c1cccc(CCCCc2ccc(Cl)c(S(=O)(=O)F)c2)c1 | 8.37 |
| CC1(C)N=C(N)N=C(N)N1c1ccc(CCCCc2ccc(Cl)c(S(=O)(=O)F)c2)c(Cl)c1 | 8.11 |
| CC1(C)N=C(N)N=C(N)N1c1cccc(CCc2ccc(S(=O)(=O)F)cc2)c1 | 8.1 |
| CC1(C)N=C(N)N=C(N)N1c1ccc(OCCCCC(=O)Nc2ccc(S(=O)(=O)F)cc2)c(Cl)c1 | 7.24 |
| CC1(C)N=C(N)N=C(N)N1c1ccc(CCCCc2ccc(Cl)cc2Cl)cc1 | 7.92 |
| CC1(C)N=C(N)N=C(N)N1c1ccc(SCC(=O)Nc2cccc(S(=O)(=O)F)c2)c(Cl)c1 | 7.66 |

---

# system.tested: Dihydrofolate reductase (Mus musculus)
# experimental.protocol: Inhibition of dihydrofolate reductase from L1210 leukemia tumors
observed.property: Log 1/C

| molecule | system.tested | measured |
| --- | --- | --- |
| CC1(C)N=C(N)N=C(N)N1c1ccc(OCCCNC(=O)Nc2cccc(S(=O)(=O)F)c2)c(Cl)c1 | Dihydrofolate reductase (Mus musculus) | 7.28 |
| CC1(C)N=C(N)N=C(N)N1c1ccc(OCCCCCOc2ccc(S(=O)(=O)F)cc2)c(Cl)c1 | Dihydrofolate reductase (Mus musculus) | 7.57 |
| Cc1cc(S(=O)(=O)F)ccc1COc1ccc(N2C(N)=NC(N)=NC2(C)C)cc1Cl | Dihydrofolate reductase (Mus musculus) | 7.38 |
| CC1(C)N=C(N)N=C(N)N1c1ccc(SCC(=O)Nc2ccc(S(=O)(=O)F)cc2)cc1 | Dihydrofolate reductase (Mus musculus) | 7.52 |
| CC1(C)N=C(N)N=C(N)N1c1ccc(OCc2ccc(S(=O)(=O)F)c(Cl)c2)c(Cl)c1 | Dihydrofolate reductase (Mus musculus) | 7.43 |
| CC1(C)N=C(N)N=C(N)N1c1ccc(OCc2ccc(Cl)c(S(=O)(=O)F)c2)c(Cl)c1 | Dihydrofolate reductase (Mus musculus) | 8 |
| CC1(C)N=C(N)N=C(N)N1c1ccc(OCc2ccccc2S(=O)(=O)F)c(Cl)c1 | Dihydrofolate reductase (Mus musculus) | 7.43 |
| CC1(C)N=C(N)N=C(N)N1c1cccc(CCCCc2cc(Cl)ccc2S(=O)(=O)F)c1 | Dihydrofolate reductase (Mus musculus) | 7.96 |
| CC1(C)N=C(N)N=C(N)N1c1ccc(OCc2ccc(COc3ccc(S(=O)(=O)F)cc3)cc2)c(Cl)c1 | Dihydrofolate reductase (Mus musculus) | 6.82 |
| CC1(C)N=C(N)N=C(N)N1c1ccc(CCCCc2cc(Cl)ccc2S(=O)(=O)F)c(Cl)c1 | Dihydrofolate reductase (Mus musculus) | 7.06 |
| CC1(C)N=C(N)N=C(N)N1c1ccc(CCC(=O)Nc2ccc(S(=O)(=O)F)cc2)c(Cl)c1 | Dihydrofolate reductase (Mus musculus) | 7.62 |
| CN(C)C(=O)c1cccc(NC(=O)NCc2cccc(N3C(N)=NC(N)=NC3(C)C)c2)c1 | Dihydrofolate reductase (Mus musculus) | 7.77 |
| CC1(C)N=C(N)N=C(N)N1c1ccc(Cl)c(CCc2ccc(S(=O)(=O)F)cc2)c1 | Dihydrofolate reductase (Mus musculus) | 5.82 |
| CC1(C)N=C(N)N=C(N)N1c1ccc(CCCCc2ccccc2S(=O)(=O)F)c(Cl)c1 | Dihydrofolate reductase (Mus musculus) | 7.77 |
| Cc1cc(NC(=O)NCCCOc2ccc(N3C(N)=NC(N)=NC3(C)C)cc2Cl)ccc1S(=O)(=O)F | Dihydrofolate reductase (Mus musculus) | 8.06 |
| CC1(C)N=C(N)N=C(N)N1c1ccc(OCCCC(=O)Nc2ccc(S(=O)(=O)F)cc2)c(Cl)c1 | Dihydrofolate reductase (Mus musculus) | 7.15 |
| CC1(C)N=C(N)N=C(N)N1c1cccc(CNC(=O)N2CCOCC2)c1 | Dihydrofolate reductase (Mus musculus) | 6.43 |
| CC1(C)N=C(N)N=C(N)N1c1ccc(CC(C(=O)Nc2cccc(S(=O)(=O)F)c2)c2ccccc2)cc1 (stereo not given) | Dihydrofolate reductase (Mus musculus) | 6.89 |
| CC1(C)N=C(N)N=C(N)N1c1cccc(OCCCCOc2ccc(S(=O)(=O)F)cc2)c1 | Dihydrofolate reductase (Mus musculus) | 7.49 |
| CC1(C)N=C(N)N=C(N)N1c1ccc(OCc2cc(Cl)ccc2S(=O)(=O)F)c(Cl)c1 | Dihydrofolate reductase (Mus musculus) | 7.27 |
| CC1(C)N=C(N)N=C(N)N1c1ccc(OCc2ccc(S(=O)(=O)F)cc2Cl)c(Cl)c1 | Dihydrofolate reductase (Mus musculus) | 7.44 |
| CC1(C)N=C(N)N=C(N)N1c1ccc(CCCCc2cccc(Cl)c2S(=O)(=O)F)c(Cl)c1 | Dihydrofolate reductase (Mus musculus) | 8.2 |
| CC1(C)N=C(N)N=C(N)N1c1ccc(OCc2cccc(S(=O)(=O)F)c2)c(Cl)c1 | Dihydrofolate reductase (Mus musculus) | 7.72 |
| CC1(C)N=C(N)N=C(N)N1c1ccc(OCC(=O)Nc2ccc(S(=O)(=O)F)cc2)c(Cl)c1 | Dihydrofolate reductase (Mus musculus) | 7.43 |
| CC1(C)N=C(N)N=C(N)N1c1ccc(CCCCc2ccc(S(=O)(=O)F)c(Cl)c2)c(Cl)c1 | Dihydrofolate reductase (Mus musculus) | 7.7 |
| CC(Oc1ccc(N2C(N)=NC(N)=NC2(C)C)cc1Cl)C(=O)Nc1ccc(S(=O)(=O)F)cc1 (stereo not given) | Dihydrofolate reductase (Mus musculus) | 7.13 |
| CC1(C)N=C(N)N=C(N)N1c1ccc(CCc2ccc(S(=O)(=O)F)c(Cl)c2)c(Cl)c1 | Dihydrofolate reductase (Mus musculus) | 7.85 |
| CC1(C)N=C(N)N=C(N)N1c1ccc(CCC(=O)Nc2cccc(S(=O)(=O)F)c2)cc1 | Dihydrofolate reductase (Mus musculus) | 7.74 |
| CC1(C)N=C(N)N=C(N)N1c1cccc(OCCOc2ccc(S(=O)(=O)F)cc2)c1 | Dihydrofolate reductase (Mus musculus) | 7.82 |
| CC1(C)N=C(N)N=C(N)N1c1ccc(OCCCC(=O)Nc2cccc(S(=O)(=O)F)c2)c(Cl)c1 | Dihydrofolate reductase (Mus musculus) | 7.17 |
| CC1(C)N=C(N)N=C(N)N1c1cccc(CCCCc2ccc(S(=O)(=O)F)cc2)c1 | Dihydrofolate reductase (Mus musculus) | 8.1 |
| CC1(C)N=C(N)N=C(N)N1c1ccc(CCC(=O)Nc2ccc(S(=O)(=O)F)cc2)cc1 | Dihydrofolate reductase (Mus musculus) | 7.6 |
| CC1(C)N=C(N)N=C(N)N1c1ccc(OCCCCNC(=O)c2ccc(S(=O)(=O)F)cc2)c(Cl)c1 | Dihydrofolate reductase (Mus musculus) | 7.66 |
| CC1(C)N=C(N)N=C(N)N1c1ccc(SCC(=O)Nc2ccc(S(=O)(=O)F)cc2)c(Cl)c1 | Dihydrofolate reductase (Mus musculus) | 7.42 |
| CC1(C)N=C(N)N=C(N)N1c1cccc(OCCCOc2ccc(S(=O)(=O)F)cc2)c1 | Dihydrofolate reductase (Mus musculus) | 7.96 |
